Provenance of the data: patent US11225505B2

# System: Acinetobacter baumannii FADDI-AB030
# ASSAY_DETAILS: microbe, parasite or virus in culture
# Format: cell-based
# EXPERIMENTAL_CONTEXT: FADDI-AB030
Where a SMILES comes first, the peptide text is derived from it. Bridges are numbered along the chain shown (N, C = ends). [ ]: non-standard residue; d: D form. The star is where a group is joined. Nicotinoyl(6-CF3) = O=C(c1ccc(C(F)(F)F)nc1)*; X11 = Cn1nc(C(=O)*)c2ccccc21; X22 = Cn1c(C(=O)*)cc2ccccc21; Dab = NCC[C@H](N)C(=O)O; Abu = CC[C@H](N)C(=O)O; Dap = NC[C@H](N)C(=O)O
READOUT_KIND: Minimum inhibitory concentration

Returns the measured Minimum inhibitory concentration for the input compound. Input: CC[C@@H]1NC(=O)[C@@H](CC(C)C)NC(=O)[C@H](CCN)NC(=O)[C@@H](NC(=O)[C@H](CN)NC(=O)[C@@H](NC(=O)[C@H](CCN)NC(=O)c2ccc(C(F)(F)F)nc2)[C@@H](C)O)CCNC(=O)[C@H]([C@@H](C)O)NC(=O)[C@H](CCN)NC(=O)[C@H](CCN)NC1=O [Compound 3] ({Nicotinoyl(6-CF3)}-[Dab]T[Dap][Dab][Dab][dL][Abu][Dab][Dab]T; lactam 4-C) 1 µg/mL

Then CC[C@@H]1NC(=O)[C@@H](CC(C)C)NC(=O)[C@H](CCN)NC(=O)[C@@H](NC(=O)[C@H](CN)NC(=O)[C@@H](NC(=O)[C@H](CCN)NC(=O)c2nn(C)c3ccccc23)[C@@H](C)O)CCNC(=O)[C@H]([C@@H](C)O)NC(=O)[C@H](CCN)NC(=O)[C@H](CCN)NC1=O [Compound 51] (X11-[Dab]T[Dap][Dab][Dab][dL][Abu][Dab][Dab]T; lactam 4-C) ? <0.125 µg/mL

Then CC[C@@H]1NC(=O)[C@@H](CC(C)C)NC(=O)[C@H](CCN)NC(=O)[C@@H](NC(=O)[C@H](CN)NC(=O)[C@@H](NC(=O)[C@H](CCN)NC(=O)c2cc3ccccc3n2C)[C@@H](C)O)CCNC(=O)[C@H]([C@@H](C)O)NC(=O)[C@H](CCN)NC(=O)[C@H](CCN)NC1=O [Compound 48] (X22-[Dab]T[Dap][Dab][Dab][dL][Abu][Dab][Dab]T; lactam 4-C) ? <0.125 µg/mL
